Target or system: T1, rat serum albumin (rat)
T1 chain: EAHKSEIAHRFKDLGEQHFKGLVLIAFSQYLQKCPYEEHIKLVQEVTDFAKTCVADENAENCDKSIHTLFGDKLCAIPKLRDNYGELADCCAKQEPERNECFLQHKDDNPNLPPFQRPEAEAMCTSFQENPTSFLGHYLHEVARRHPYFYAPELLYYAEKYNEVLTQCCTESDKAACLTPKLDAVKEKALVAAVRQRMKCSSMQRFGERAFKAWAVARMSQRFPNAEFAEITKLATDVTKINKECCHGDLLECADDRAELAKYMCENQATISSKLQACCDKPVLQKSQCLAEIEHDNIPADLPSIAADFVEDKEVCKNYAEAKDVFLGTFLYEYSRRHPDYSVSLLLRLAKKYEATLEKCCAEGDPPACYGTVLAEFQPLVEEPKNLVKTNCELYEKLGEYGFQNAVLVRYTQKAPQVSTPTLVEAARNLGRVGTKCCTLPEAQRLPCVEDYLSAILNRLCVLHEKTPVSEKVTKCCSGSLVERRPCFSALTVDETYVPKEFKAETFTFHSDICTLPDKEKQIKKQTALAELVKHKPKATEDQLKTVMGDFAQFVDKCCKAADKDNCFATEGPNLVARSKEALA
Protocol details: SPR Biacore T200, fusion protein captured by anti-VHH antibody, albumin as analyte
Experimental readout: koff (s⁻¹)

Binder | Experimental readout | Numeric readout
0051 (other, Single-chain fusion: anti-HSA VHH, linker, relaxin-2 B chain, linker, relaxin-2 A chain; also called fusion protein 0051; molecule 0051) EVQLLESGGGLVQPGGSLRLSCAASGFTFLTSCMGWFRQAPGKEREGVSSIYTVGGSTFYTNSVKGRFTISRDNSKNTLYLQMNSLRAEDTAVYYCAAGSPARCRLRDPTTFDYWGQGTLVTVSSGGGGQGGGGQGGGGQGGGGQGGGGQSWMEEVIKLCGRELVRAQIAICGMSTWSGGGSGGSGGGQLYSALANKCCHVGCTKRSLARFC | koff | 0.00581
